MEASURED TARGET: recombinant soluble tissue factor and recombinant human factor VIIa (TF-VIIa) (Homo sapiens)
Construct: conversion of coagulation factor VII to VIIa by Xa; purchased American Diagnostica, Greenwich Conn; host or cells: VIIa purchased; soluble TF made in house in E. coli
Sequence (P08709 61-212 limits assumed): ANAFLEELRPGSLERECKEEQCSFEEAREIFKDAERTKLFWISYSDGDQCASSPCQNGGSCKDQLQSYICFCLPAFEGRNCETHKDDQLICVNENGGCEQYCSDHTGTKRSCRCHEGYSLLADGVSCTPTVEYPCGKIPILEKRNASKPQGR
Sequence (P08709 213-466 limits assumed): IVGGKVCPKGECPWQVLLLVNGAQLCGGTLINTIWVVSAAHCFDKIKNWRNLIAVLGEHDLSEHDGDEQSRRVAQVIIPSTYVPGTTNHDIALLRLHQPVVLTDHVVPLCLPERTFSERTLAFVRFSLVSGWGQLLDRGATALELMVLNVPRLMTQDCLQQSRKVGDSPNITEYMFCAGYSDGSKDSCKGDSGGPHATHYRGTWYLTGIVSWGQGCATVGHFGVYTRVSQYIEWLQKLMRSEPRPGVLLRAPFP
Sequence (P13726 33-251 partner limits assumed): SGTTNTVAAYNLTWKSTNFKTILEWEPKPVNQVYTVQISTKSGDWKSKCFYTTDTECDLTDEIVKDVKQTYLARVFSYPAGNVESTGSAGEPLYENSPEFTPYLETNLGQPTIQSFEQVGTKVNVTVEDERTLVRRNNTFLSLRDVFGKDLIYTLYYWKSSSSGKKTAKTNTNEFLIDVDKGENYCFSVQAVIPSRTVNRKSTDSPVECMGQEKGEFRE
TEST PROTOCOL: TF-VIIa Assay
Format: biochemical
MEASURED ATTRIBUTE: % Inhibition TF-VIIa (100 µM)

Here are 5 molecules together with their reported answers.
MOLECULE	% Inhibition TF-VIIa (100 µM)
O=C(Cn1c(-c2ccc(-c3ccccc3)cc2)c(Cl)nc(NCc2ccccc2)c1=O)NCCc1cccnc1	0%
O=C(Cn1c(-c2ccc(-c3ccccc3)cc2)c(Cl)nc(NCc2ccncc2)c1=O)NCCc1ccncc1	0%
O=C(Cn1c(-c2ccc(-c3ccccc3)cc2)c(Cl)nc(NCCc2cccnc2)c1=O)NCCc1ccncc1	0%
O=C(Cn1c(-c2ccc(-c3ccccc3)cc2)c(Cl)nc(NCCN2CCOCC2)c1=O)NCCc1ccncc1	0%
O=C(Cn1c(-c2ccc(-c3ccccc3)cc2)c(Cl)nc(NCCc2ccccc2)c1=O)NCCc1ccncc1 [Example E-0050]	0%

input: Name the recorded % Inhibition TF-VIIa (100 µM) of the molecule listed here: O=C(Cn1c(-c2ccc(-c3ccccc3)cc2)c(Cl)nc(NCCc2ccc(Cl)cc2)c1=O)NCCc1ccncc1 [Example E-0052]
output: 0%

input: Name the recorded % Inhibition TF-VIIa (100 µM) of the molecule listed here: O=C(Cn1c(-c2ccc(-c3ccccc3)cc2)c(Cl)nc(NCCc2ccc(Cl)cc2)c1=O)NCCc1ccncc1 [Example E-0118]
output: 12%

input: Name the recorded % Inhibition TF-VIIa (100 µM) of the molecule listed here: O=C(Cn1c(-c2ccc(-c3ccccc3)cc2)c(Cl)nc(NCc2ccccc2)c1=O)NCCc1ccncc1 [Example E-0049]
output: 2%

input: Name the recorded % Inhibition TF-VIIa (100 µM) of the molecule listed here: O=C(Cn1c(-c2ccc(-c3ccccc3)cc2)c(Cl)nc(NCCc2ccccc2)c1=O)NCCc1ccncc1 [Example E-0112]
output: 11%

input: Name the recorded % Inhibition TF-VIIa (100 µM) of the molecule listed here: O=C(Cn1c(-c2ccc(-c3ccccc3)cc2)c(Cl)nc(NCc2ccccc2)c1=O)NCCc1ccncc1 [Example E-0109]
output: 2%

====

MEASURED TARGET: Human factor Xa (Homo sapiens)
Sequence (P00742 41-179 limits assumed): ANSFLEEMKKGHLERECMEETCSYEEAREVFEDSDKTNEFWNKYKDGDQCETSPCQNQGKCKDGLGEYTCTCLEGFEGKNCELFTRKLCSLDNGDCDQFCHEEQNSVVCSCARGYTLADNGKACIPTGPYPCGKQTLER
Sequence (P00742 235-488 limits assumed): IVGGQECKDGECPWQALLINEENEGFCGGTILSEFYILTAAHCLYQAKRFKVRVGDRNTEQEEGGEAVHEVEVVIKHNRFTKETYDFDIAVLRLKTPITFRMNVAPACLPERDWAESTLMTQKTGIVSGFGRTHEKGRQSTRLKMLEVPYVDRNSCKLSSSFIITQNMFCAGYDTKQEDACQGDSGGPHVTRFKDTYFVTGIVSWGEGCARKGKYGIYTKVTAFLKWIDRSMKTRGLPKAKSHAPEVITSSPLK
TEST PROTOCOL: Xa Assay
Assay type: biochemical
Design: purchased Enzyme Research Laboratories, South Bend Ind
CONDITIONS USED: at 30 µM
Items are presented alongside their recorded % Inhibition Factor Xa (30 µM).
# number then unit; no other words

input: Name the recorded % Inhibition Factor Xa (30 µM) of the compound listed here: N=C(N)c1ccc(CNC(=O)Cn2c(-c3cccc(N)c3)c(Cl)nc(NCCN3CCCC3)c2=O)cc1 [1543-03]
output: 34%

input: Name the recorded % Inhibition Factor Xa (30 µM) of the compound listed here: CC(C)(C)CCNc1nc(Cl)c(-c2ccccc2)n(CC(=O)NCc2ccc(C(=N)N)cc2)c1=O [Example 1517-41]
output: 0%

input: Name the recorded % Inhibition Factor Xa (30 µM) of the compound listed here: N=C(N)c1ccc(CNC(=O)C(Cc2ccccc2)n2c(-c3ccccc3)c(Cl)nc(NCCc3ccccc3)c2=O)cc1 (stereo not shown) [Example 1517-14]
output: 0%

input: Name the recorded % Inhibition Factor Xa (30 µM) of the compound listed here: N=C(N)c1ccc(CNC(=O)C(Cc2ccccc2)n2c(-c3ccccc3)c(Cl)nc(NCCc3cccc(Cl)c3)c2=O)cc1 (stereo not shown) [Example 1517-20]
output: 0%

input: Name the recorded % Inhibition Factor Xa (30 µM) of the compound listed here: CCCNc1nc(Cl)c(-c2ccccc2)n(CC(=O)NCc2ccc(C(=N)N)cc2)c1=O [Example 1517-33]
output: 0%

input: Name the recorded % Inhibition Factor Xa (30 µM) of the compound listed here: CC(C)N(C)c1nc(Cl)c(-c2ccccc2)n(CC(=O)NCc2ccc(C(=N)N)cc2)c1=O [Example 1517-31]
output: 0%

input: Name the recorded % Inhibition Factor Xa (30 µM) of the compound listed here: N=C(N)c1ccc(CNC(=O)Cn2c(-c3cccc(N)c3)c(Cl)nc(NC3CC3)c2=O)c(F)c1 [1543-33]
output: 14%

Origin of values: patent US6908919B2
